Data origin: paper PMC4710522

# ASSAY TEXT: rat pharmacokinetics
# Type: in vivo
# DETAILS: Sprague-Dawley, plasma, iv, i.v. 2 mg/kg, male rats, read-out: mean residence time (MRT)
ENDPOINT LABEL: MRT (h)

>>> recorded_measurement("c1cc(CC2CCOCC2)n2nc(Nc3ccc4c(NC5CCOCC5)n[nH]c4c3)nc2c1")
2.3

====

# TEST TARGET: Syk_h (Homo sapiens, UniProt P43405)
pIC50: −log10 of the molar value.
ENDPOINT LABEL: pIC50

>>> recorded_measurement("c1cc(CC2CCOCC2)n2nc(Nc3ccc4c(NC5CCOCC5)n[nH]c4c3)nc2c1 [CC-509]")
7.56

====

# TEST TARGET: Fms_h (Homo sapiens)
# Sequence (P07333 20-972): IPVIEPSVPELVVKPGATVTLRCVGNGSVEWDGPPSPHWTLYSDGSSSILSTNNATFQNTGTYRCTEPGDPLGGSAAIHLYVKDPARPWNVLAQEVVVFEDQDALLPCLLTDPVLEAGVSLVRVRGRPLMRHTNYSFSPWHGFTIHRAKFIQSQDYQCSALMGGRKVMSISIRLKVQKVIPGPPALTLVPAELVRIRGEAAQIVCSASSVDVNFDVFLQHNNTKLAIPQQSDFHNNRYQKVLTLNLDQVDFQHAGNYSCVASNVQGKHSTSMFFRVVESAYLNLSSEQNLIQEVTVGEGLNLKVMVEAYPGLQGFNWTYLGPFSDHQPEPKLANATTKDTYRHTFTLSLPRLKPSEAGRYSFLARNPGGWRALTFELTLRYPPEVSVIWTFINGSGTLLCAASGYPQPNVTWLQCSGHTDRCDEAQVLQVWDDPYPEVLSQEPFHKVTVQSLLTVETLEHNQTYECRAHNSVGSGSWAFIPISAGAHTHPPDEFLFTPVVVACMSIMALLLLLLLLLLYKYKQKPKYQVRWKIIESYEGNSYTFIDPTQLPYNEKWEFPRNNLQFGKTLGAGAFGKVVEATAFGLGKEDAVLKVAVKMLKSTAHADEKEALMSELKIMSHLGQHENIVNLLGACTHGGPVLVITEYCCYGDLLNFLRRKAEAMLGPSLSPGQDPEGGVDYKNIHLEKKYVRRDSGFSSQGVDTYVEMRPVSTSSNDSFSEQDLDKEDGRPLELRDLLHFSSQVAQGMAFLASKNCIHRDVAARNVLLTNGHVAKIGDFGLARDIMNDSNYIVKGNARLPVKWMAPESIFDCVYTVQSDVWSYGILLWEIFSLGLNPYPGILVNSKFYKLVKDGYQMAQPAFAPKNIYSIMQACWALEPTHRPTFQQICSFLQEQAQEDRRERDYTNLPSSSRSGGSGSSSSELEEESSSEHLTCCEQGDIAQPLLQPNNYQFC
pIC50: −log10 of the molar value.
ENDPOINT LABEL: pIC50

>>> recorded_measurement("c1cc(CC2CCOCC2)n2nc(Nc3ccc4c(NC5CCOCC5)n[nH]c4c3)nc2c1 [CC-509]")
8.06

====

# ASSAY TEXT: rat pharmacokinetics
# Format: in vivo
# DETAILS: Sprague-Dawley, plasma, oral 10 mg/kg, female rats
ENDPOINT LABEL: Cmax (µM)

>>> recorded_measurement("c1cc(CC2CCOCC2)n2nc(Nc3ccc4c(NC5CCOCC5)n[nH]c4c3)nc2c1")
4.4

====

# TEST TARGET: Syk (Homo sapiens, UniProt P43405)
pKi: −log10 of the molar value.
ENDPOINT LABEL: pKi

>>> recorded_measurement("c1cc(CC2CCOCC2)n2nc(Nc3ccc4c(NC5CCOCC5)n[nH]c4c3)nc2c1")
7.74
